- ASSAY COMMENT: MTS-based cell viability assay in LLC-Mk2 cells
- MEASUREMENT CONTEXT: Macaca mulatta, read-out: CC50 (HCoV-NL63 block)
- Procedure: LR7, LLC-Mk2 or Vero cells were seeded in 96-well plates and cultured overnight. Next, the medium was changed to a new one supplemented with different concentrations (in triplicate) of analyzed compounds. Following the 2 days (LR7 and Vero) or 4 days (LLC-Mk-2) of incubation, CellTiter 96 AQueous nonradioactive cell proliferation assay (Promega) was performed according to the manufacturer’s instruction. […]
MEASURED ATTRIBUTE: CC50 at 96 h (µM)
# unit: µM | format: bare number

Note to self: CC50 at 96 h recorded for `CC(=O)OC[C@H]1O[C@@H](OCc2cn(C[C@H]3O[C@@H](n4ccc(=O)[nH]c4=O)[C@H](O[Si](C)(C)C(C)(C)C)[C@@H]3O[Si](C)(C)C(C)(C)C)nn2)[C@H](OC(C)=O)[C@@H](OC(C)=O)[C@H]1OC(C)=O` was 49.8

Entry under test: `CC(=O)OC[C@H]1O[C@@H](SCn2cc(COC[C@H]3O[C@@H](n4ccc(=O)[nH]c4=O)[C@H](O[Si](C)(C)C(C)(C)C)[C@@H]3O[Si](C)(C)C(C)(C)C)nn2)[C@H](OC(C)=O)[C@@H](OC(C)=O)[C@@H]1OC(C)=O` . Its CC50 at 96 h was 59.1

Value of CC50 at 96 h reported for the compound `CC(=O)OC[C@H]1O[C@@H](SCc2cn(C[C@H]3O[C@@H](n4ccc(=O)[nH]c4=O)[C@H](O[Si](C)(C)C(C)(C)C)[C@@H]3O[Si](C)(C)C(C)(C)C)nn2)[C@H](OC(C)=O)[C@@H](OC(C)=O)[C@H]1OC(C)=O` is 46.7

* * *

Record form. Attribute: CC50 at 48 h. Fill in for each entry.
- ASSAY COMMENT: MTS-based cell viability assay in LR7 cells
- Design: species or system mouse
- MEASUREMENT CONTEXT: mouse, LR7 cells, 48 h, 0–100 μM, read-out: CC50 (MHV block)
The response must be a number in µM with no trailing unit.

Entry CC(=O)OC[C@H]1O[C@@H](OCc2cn(C[C@H]3O[C@@H](n4ccc(=O)[nH]c4=O)[C@H](O[Si](C)(C)C(C)(C)C)[C@@H]3O[Si](C)(C)C(C)(C)C)nn2)[C@H](OC(C)=O)[C@@H](OC(C)=O)[C@H]1OC(C)=O [Compound 15] ; CC50 at 48 h = 134

response.value for CC(=O)OC[C@H]1O[C@@H](SCc2cn(C[C@H]3O[C@@H](n4ccc(=O)[nH]c4=O)[C@H](O[Si](C)(C)C(C)(C)C)[C@@H]3O[Si](C)(C)C(C)(C)C)nn2)[C@H](OC(C)=O)[C@@H](OC(C)=O)[C@H]1OC(C)=O [Compound 21] (field: CC50 at 48 h) = 65.3

* * *

- Test system: LR7 cells
- ASSAY COMMENT: MTS-based cell viability assay in LR7 cells
- Design: species or system mouse
- MEASUREMENT CONTEXT: 50 μM, uninfected LR7 cells
MEASURED ATTRIBUTE: reduction of cell viability (cytotoxicity in uninfected cells)

CC(=O)OC[C@H]1O[C@@H](SCn2cc(COC[C@H]3O[C@@H](n4ccc(=O)[nH]c4=O)[C@H](O[Si](C)(C)C(C)(C)C)[C@@H]3O[Si](C)(C)C(C)(C)C)nn2)[C@H](OC(C)=O)[C@@H](OC(C)=O)[C@@H]1OC(C)=O : 10–30%
CC(=O)OC[C@H]1O[C@@H](SCc2cn(C[C@H]3O[C@@H](n4ccc(=O)[nH]c4=O)[C@H](O[Si](C)(C)C(C)(C)C)[C@@H]3O[Si](C)(C)C(C)(C)C)nn2)[C@H](OC(C)=O)[C@@H](OC(C)=O)[C@H]1OC(C)=O : no detectable toxicity
CC(=O)OC[C@H]1O[C@@H](OCc2cn(C[C@H]3O[C@@H](n4ccc(=O)[nH]c4=O)[C@H](O[Si](C)(C)C(C)(C)C)[C@@H]3O[Si](C)(C)C(C)(C)C)nn2)[C@H](OC(C)=O)[C@@H](OC(C)=O)[C@H]1OC(C)=O : 10–30%
CC(=O)OC[C@H]1O[C@@H](SCc2cn(C[C@H]3O[C@@H](n4ccc(=O)[nH]c4=O)[C@H](O[Si](C)(C)C(C)(C)C)[C@@H]3O[Si](C)(C)C(C)(C)C)nn2)[C@H](OC(C)=O)[C@@H](OC(C)=O)[C@@H]1OC(C)=O : no detectable toxicity
